assay: soluble on expression in E. coli; label from the status in PepcDB or PDB records
RECORDED ENDPOINT: soluble on expression in E. coli

Please review the following examples before continuing.
MACROMOLECULE SEQUENCE: IKEGQLAEKTIRANKNIENTYETEQRKKLAAEAVTPEYIYQEDTASVQHNRIDKLFKLIDSANEKVDKEYSNKQAKAKKEETIPAPTVEERVASLKSLFESLPQDEVTFYQSFPNVFYQTIFTLTSEQLDKVRSESLMLVDDAMQNHVRESDLDKIRQEANGKIQYLDITSTMQQVIRYIVNQGIVVNDIANEKRTEELRQKAMNAVQPAMIYQGEIIVREGTQIDAKAVEKLELLGMTSQNTS
soluble on expression in E. coli: not soluble
//
MACROMOLECULE SEQUENCE: MITTFETILDKIKAHQTIIIHRHQNPDPDALGSQAGLKEIIAQNFPDKKVLMTGFDEPSLAWISQMDQVTDKDYKEALVIITDTANRPRIDDERYTLGKCLIKIDHHPNDDVYGDFYYVDTSASSASEIIADFAFSQNLTLSDKAAKLLYTGIVGDTGRFLYASTTSKTLSIASQLRHFEFDFAAISRQMDSFPLKIAKLQSYVFEHLTIDESGAAYVLVSQETLKHFDVTLAESSAIVCAPGKIDNVQAWAIFVELTDGNYRVRMRSKEKIINGIAKRHGGGGHPLASGANSANLEENQAIFRELIAVCQEILEHHHHHH
soluble on expression in E. coli: soluble
//
MACROMOLECULE SEQUENCE: MGSDKIHHHHHHMTTSYAKIEITGTLTVLTGLQIGAGDGFSAIGAVDKPVVRDPLSRLPMIPGTSLKGKVRTLLSRQYGADTETFYRKPNEDHAHIRRLFGDTEEYMTGRLVFRDTKLTNKDDLEARGAKTLTEVKFENAINRVTAKANLRQMERVIPGSEFAFSLVYEVSFGTPGEEQKASLPSSDEIIEDFNAIARGLKLLELDYLGGSGTRGYGQVKFSNLKARAAVGALDGSLLEKLNHELAAV
soluble on expression in E. coli: not soluble
//
MACROMOLECULE SEQUENCE: GHWNQPWKCLVDHDGVFDNRMMGYATEELWFSEWENGGTPWENPAGYEQFNPVLHVDKWRVPMLVIHGQKDFRIPVEQGLAAFGALQRKGIESKLLYFHDENHWVLNPQNSIQWHDTVNAWLKKYIG
soluble on expression in E. coli: not soluble
//
MACROMOLECULE SEQUENCE: REHDFDDLKFEHFLASAAGAFPAFLEVAEKRIIGEGVLRAVKESMRWHRAENVHFGAFLLLVPLISSWDAGGMVDIAEAARNRLRRTDFRDSLSVLEAFRLSNARVVEAGELNLKDRKTEEEIAQKKINLYEWMKMAPEENLIARELVDGFKISIEGAKFLLSFGNSGKAVVELYYHLLSKFPDPLVIAKMGREYAEKITEWAEKARTEEERKELDEKLLKDGANPGTIADLTASSIFLALAEGWR
soluble on expression in E. coli: soluble

Measured soluble on expression in E. coli, ELRAKERKIIRDKEDGLNPQLADRMTLNELYDRFIEQKYDLKPSTKVNYLYMYNHFVRPTFGKRLIGKIKYSDVKKFYYRIILDEEMKANTLDSIHTQLHPAFQMAVRDGLLRQNPTDGLMAEIKKSHIWEDNPRHALTIPQQKAFMDYLKAHREYQGWVPIITVLLGTGMRIGECIGLRWDDLDFEKRIVSVNHTFIYRPDENRKSVKHISTPKTISGRRTIPMIDEVFNAFLDEYEIQKCIGFSSEEIDGYSNFVFVTATGTVYLPNAVNRAIERARVAYNKDEIEIAEKEDREPLIIPHF : not soluble

Where do the numbers come from? From the DeepSol protein solubility set.
